biological target: GRK6, recombinant full-length GST-tagged human protein (Homo sapiens); construct: Enzyme: 20 nM GRK6, recombinant full-length GST-tagged human protein; GST; experiment: GRK6 assay, IC50 determination (8-point concentration-response); format: biochemical; conditions: Series 3 (Table 13); conditions as Example 18
observed.property: IC50
// return the numeric value with its unit appended

Known IC50 results, listed for orientation:
// query Return reported IC50; argument: COc1cc(Cl)cc(-c2cc(-c3nnc(SCc4nnn[nH]4)[nH]3)cc([N+](=O)[O-])c2)c1
// result 1210 nM

// query And then c1ccc2ncc(-c3ccc(-c4nnc(SCc5nnn[nH]5)[nH]4)o3)cc2c1 , what is it?
// result 1100 nM

// query And then N#Cc1cccc(-c2ccc(-c3nnc(SCc4nnn[nH]4)[nH]3)o2)c1 , what is it?
// result 3620 nM

Okay, now this compound:
// query Return reported IC50; argument: CS(=O)(=O)c1cccc(-c2ccc(-c3nnc(SCc4nnn[nH]4)[nH]3)o2)c1
// result 7450 nM

====

molecular target: GRK6, recombinant full-length GST-tagged human protein (Homo sapiens, UniProt P43250); construct: Enzyme: 20 nM GRK6, recombinant full-length GST-tagged human protein; GST; test: GRK6 assay, IC50 determination (8-point concentration-response); type: biochemical; conditions: Series 1 (Table 11); 20 nM GRK6, ATP 12 μM (Km), Peptide 216 1 μM, incubation 7 h
Sequence (P43250 whole entry): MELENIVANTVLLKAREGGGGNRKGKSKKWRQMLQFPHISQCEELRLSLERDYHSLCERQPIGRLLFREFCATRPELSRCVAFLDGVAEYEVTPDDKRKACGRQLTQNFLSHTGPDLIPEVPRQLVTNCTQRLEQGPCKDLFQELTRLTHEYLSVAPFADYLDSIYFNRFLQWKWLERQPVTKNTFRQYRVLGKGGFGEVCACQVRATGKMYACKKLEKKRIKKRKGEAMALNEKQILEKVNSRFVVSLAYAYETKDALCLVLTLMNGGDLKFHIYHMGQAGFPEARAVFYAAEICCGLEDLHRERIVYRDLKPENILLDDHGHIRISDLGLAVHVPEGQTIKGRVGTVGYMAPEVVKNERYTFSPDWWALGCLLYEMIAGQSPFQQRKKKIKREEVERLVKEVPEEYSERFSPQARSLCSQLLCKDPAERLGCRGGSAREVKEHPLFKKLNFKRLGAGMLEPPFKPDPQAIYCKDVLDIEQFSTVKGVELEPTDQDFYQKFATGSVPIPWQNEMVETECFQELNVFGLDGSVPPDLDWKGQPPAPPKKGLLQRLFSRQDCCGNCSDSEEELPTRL
observed.property: pIC50
Answers are plain numbers, as −log10 of the molar value.

Known pIC50 results, listed for orientation:
// query Return reported pIC50; argument: COc1ccc(-c2ccc(-c3nnc(SCC(=O)O)[nH]3)o2)cc1OCc1ccccc1
// result 6.29

// query And then O=C(O)CSc1nnc(-c2ccc(-c3cccc(OCc4ccc(Cl)c(Cl)c4)c3)o2)[nH]1 , what is it?
// result 6.44

// query And then Cc1cc(-c2ccc(-c3nnc(SCC(=O)O)[nH]3)o2)ccc1Cl , what is it?
// result 6.41

// query And then CO/N=C/c1cc(-c2ccc(-c3nnc(SCC(=O)O)[nH]3)o2)ccc1OC , what is it?
// result 6.06

Required: pIC50, one value per compound below.
1. COc1cccc(-c2ccc(-c3nnc(SCC(=O)O)[nH]3)o2)c1
2. O=C(O)CSc1nnc(-c2ccc(-c3cc(O)cc(F)c3)o2)[nH]1

// result
1: 6.40; 2: 6.44

Required: pIC50, one value per compound below.
1. O=C(O)CSc1nnc(-c2ccc(-c3cccc4[nH]c(-c5ccccc5)cc34)o2)[nH]1
2. COc1ccc(-c2ccc(-c3nnc(SCC(=O)O)[nH]3)o2)cc1/C=N/OCc1ccccc1

// result
6.86
6.13

====

target: GRK6, recombinant full-length GST-tagged human protein (Homo sapiens); construct: Enzyme: 20 nM GRK6, recombinant full-length GST-tagged human protein; GST; experiment: GRK6 assay, IC50 determination (8-point concentration-response); type: biochemical; settings: Series 4 (Table 14); conditions as Example 18
Output t for records whose IC50 is lower than 3 µM, f for records at or above 3 µM.

// query # strict comparison: is reported IC50 < 3 µM? input = COc1cccc(-c2nnc(SCC(=O)O)[nH]2)n1 [Compound 4-32]
// result f

Further cases:
// query # strict comparison: is reported IC50 < 3 µM? input = O=C(O)CSc1nnc(-c2ccc(-c3ccccc3)s2)[nH]1 [Compound 4-5]
// result t

// query And then O=C(O)CSc1nnc(-c2cccn2S(=O)(=O)c2ccccc2)[nH]1 [Compound 4-44] , what is it?
// result f

// query And then O=C(O)CSc1nnc(-c2cc3cccc4c3n(c2=O)CC4)[nH]1 [Compound 4-42] , what is it?
// result f

// query And then O=C(O)CSc1nnc(-c2cnn(-c3ccccc3)c2)[nH]1 [Compound 4-3] , what is it?
// result t

// query And then Cc1ccc2sc(-c3nnc(SCC(=O)O)[nH]3)cc2c1 [Compound 4-9] , what is it?
// result t

// query And then O=C(O)CSc1nnc(-c2csc3ccccc23)[nH]1 [Compound 4-7] , what is it?
// result t

// query And then O=C(O)CSc1nnc(-c2cnc3cc(OCc4ccccc4)ccc3c2)[nH]1 [Compound 4-2] , what is it?
// result t

// query And then Cn1cc(Cl)c(-c2nnc(SCC(=O)O)[nH]2)n1 [Compound 4-37] , what is it?
// result f

// query And then O=C(O)CSc1nnc(-c2[nH]ncc2Br)[nH]1 [Compound 4-23] , what is it?
// result f

// query And then O=C(O)CSc1nnc(-c2csnn2)[nH]1 [Compound 4-28] , what is it?
// result f

// query And then O=C(O)CSc1nnc(-c2cc3ccccc3s2)[nH]1 [Compound 4-8] , what is it?
// result t

// query And then O=C(O)CSc1nnc(-c2cnc(-c3ccccc3)s2)[nH]1 [Compound 4-11] , what is it?
// result f

The measured values listed here are drawn from patent US9902739B2.
